Target chain: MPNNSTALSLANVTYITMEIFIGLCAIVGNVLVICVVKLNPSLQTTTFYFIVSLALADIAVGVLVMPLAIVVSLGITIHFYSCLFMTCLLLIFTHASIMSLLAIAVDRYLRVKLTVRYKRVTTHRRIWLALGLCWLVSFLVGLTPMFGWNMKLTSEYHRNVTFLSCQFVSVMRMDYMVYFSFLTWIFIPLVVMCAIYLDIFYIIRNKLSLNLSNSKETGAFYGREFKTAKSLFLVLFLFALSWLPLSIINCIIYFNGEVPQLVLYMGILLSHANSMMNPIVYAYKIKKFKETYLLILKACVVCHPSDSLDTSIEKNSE

- MOLECULE: "O[C@@H]1[C@H](O)[C@@H]2C[C@@H]2[C@H]1n1cnc2c(NCc3cccc(I)c3)ncnc21 [Compound 23]"
  Ki: "11 nM"

----------
Biological target: human A3AR (Homo sapiens)
Experiment: Inhibition of forskolin-stimulated cAMP production
Conditions: relative to full agonist 51
EXPERIMENTAL_READOUT: agonist character at hA3AR in the adenylate cyclase (cAMP) assay

- MOLECULE: "O[C@@H]1[C@H](O)[C@@H]2C[C@@H]2[C@H]1n1cnc2c(NCc3cccc(Br)c3)nc(Cl)nc21 [Compound 2b, reference compound]"
  RESULT: "partial agonists"
- MOLECULE: "O[C@@H]1[C@H](O)[C@@H]2C[C@@H]2[C@H]1n1cnc2c(NCc3cccc(I)c3)nc(Cl)nc21 [Compound 2c, reference compound]"
  RESULT: "partial agonists"
